Reported inhibition at 10 µM values follow for various molecules
System: UACC-257 (melanoma)
protocol.summary: NCI-60 SRB cytotoxicity screen
Assay type: cell-based
test.context: Homo sapiens; UACC-257, single dose 10 μM; read-out: growth inhibition (GI%)

| molecule | inhibition at 10 µM |
| --- | --- |
| CCc1cccc2cc(C3C=C(c4cc(OC)c(OC)c(OC)c4)NC(=S)N3)c(Cl)nc12 (stereo not drawn) | 13.1% |
| CCc1cccc2cc(-c3cc(-c4ccc(OC)cc4)[nH]c(=O)c3C#N)c(Cl)nc12 | < 10% |
| CCc1cccc2cc(C=CC(=O)c3ccc(OC)c(OC)c3)c(Cl)nc12 | < 10% |

* * *

Tested on: 60 cancer cell lines (NCI)
protocol.summary: NCI-60 single-dose screen, overall verdict over the panel
Assay type: cell-based
test.context: single dose 10 μM, whole panel
measurement.kind: cytotoxic activity over the cell lines (in words)

| smiles.str | test.system | result |
| --- | --- | --- |
| CCc1cccc2cc(-c3cc(-c4ccc(OC)c(OC)c4)[nH]c(=O)c3C#N)c(Cl)nc12 | 60 cancer cell lines (NCI) | mild cytotoxic activity |
| CCc1cccc2cc(-c3cc(-c4ccc(Br)cc4)[nH]c(=O)c3C#N)c(Cl)nc12 | 60 cancer cell lines (NCI) | mild cytotoxic activity |
| CCc1cccc2cc(-c3cc(-c4ccc(F)cc4)[nH]c(=O)c3C#N)c(Cl)nc12 | 60 cancer cell lines (NCI) | mild cytotoxic activity |
| CCc1cccc2cc(C=CC(=O)c3ccc(F)cc3)c(Cl)nc12 | 60 cancer cell lines (NCI) | low cytotoxic activity |
| CCc1cccc2cc(C=CC(=O)c3ccc(Br)cc3)c(Cl)nc12 | 60 cancer cell lines (NCI) | low cytotoxic activity |

* * *

System: COLO 205 (colon cancer)
protocol.summary: NCI-60 SRB cytotoxicity screen
Assay type: cell-based
test.context: Homo sapiens; COLO 205, single dose 10 μM; read-out: growth inhibition (GI%)
measurement.kind: inhibition at 10 µM (%)

| compound | measurement.kind | unit | relation.sign | number |
| --- | --- | --- | --- | --- |
| CCc1cccc2cc(C=CC(=O)c3ccc(OC)c(OC)c3)c(Cl)nc12 [Compound 3b] | inhibition at 10 µM | % | = | 22.4 |
| CCc1cccc2cc(-c3cc(-c4ccc(OC)cc4)[nH]c(=O)c3C#N)c(Cl)nc12 [Compound 4a] | inhibition at 10 µM | % | < | 10 |
| CCc1cccc2cc(-c3cc(-c4cc(OC)c(OC)c(OC)c4)[nH]c(=S)c3C#N)c(Cl)nc12 [Compound 5c] | inhibition at 10 µM | % | = | 12.7 |

* * *

Reported inhibition at 10 µM values follow for various molecules
System: SK-MEL-2 (melanoma)
protocol.summary: NCI-60 SRB cytotoxicity screen
Assay type: cell-based
test.context: Homo sapiens; SK-MEL-2, single dose 10 μM; read-out: growth inhibition (GI%)
measurement.kind: inhibition at 10 µM

| molecule | measurement.kind | result |
| --- | --- | --- |
| CCc1cccc2cc(C3C=C(c4ccc(OC)cc4)NC(=S)N3)c(Cl)nc12 (centres unmarked) | inhibition at 10 µM | < 10% |
| CCc1cccc2cc(-c3cc(-c4ccc(OC)c(OC)c4)[nH]c(=O)c3C#N)c(Cl)nc12 | inhibition at 10 µM | < 10% |
| CCc1cccc2cc(C=CC(=O)c3ccc(OC)c(OC)c3)c(Cl)nc12 | inhibition at 10 µM | < 10% |
| CCc1cccc2cc(-c3cc(-c4cc(OC)c(OC)c(OC)c4)[nH]c(=S)c3C#N)c(Cl)nc12 | inhibition at 10 µM | 33% |
| CCc1cccc2cc(C3C=C(c4ccc(F)cc4)NC(=S)N3)c(Cl)nc12 (centres unmarked) | inhibition at 10 µM | < 10% |
| CCc1cccc2cc(C3C=C(c4ccc(OC)c(OC)c4)NC(=S)N3)c(Cl)nc12 (centres unmarked) | inhibition at 10 µM | < 10% |
| CCc1cccc2cc(-c3cc(-c4ccc(F)cc4)[nH]c(=S)c3C#N)c(Cl)nc12 | inhibition at 10 µM | < 10% |
| CCc1cccc2cc(C=CC(=O)c3cc(OC)c(OC)c(OC)c3)c(Cl)nc12 | inhibition at 10 µM | 44.5% |
| CCc1cccc2cc(-c3cc(-c4cc(OC)c(OC)c(OC)c4)[nH]c(=O)c3C#N)c(Cl)nc12 | inhibition at 10 µM | 29.8% |
| CCc1cccc2cc(C=CC(=O)c3ccc(Br)cc3)c(Cl)nc12 | inhibition at 10 µM | < 10% |
| CCc1cccc2cc(-c3cc(-c4ccc(OC)cc4)[nH]c(=S)c3C#N)c(Cl)nc12 | inhibition at 10 µM | < 10% |
| CCc1cccc2cc(-c3cc(-c4ccc(OC)c(OC)c4)[nH]c(=S)c3C#N)c(Cl)nc12 | inhibition at 10 µM | < 10% |
| CCc1cccc2cc(C=CC(=O)c3ccc(F)cc3)c(Cl)nc12 | inhibition at 10 µM | < 10% |
| CCc1cccc2cc(-c3cc(-c4ccc(Br)cc4)[nH]c(=O)c3C#N)c(Cl)nc12 | inhibition at 10 µM | < 10% |
| CCc1cccc2cc(C3C=C(c4ccc(Br)cc4)NC(=S)N3)c(Cl)nc12 (centres unmarked) | inhibition at 10 µM | < 10% |
| CCc1cccc2cc(C=CC(=O)c3ccc(OC)cc3)c(Cl)nc12 | inhibition at 10 µM | < 10% |
| CCc1cccc2cc(C3C=C(c4cc(OC)c(OC)c(OC)c4)NC(=S)N3)c(Cl)nc12 (centres unmarked) | inhibition at 10 µM | 10.2% |
